Biological target: UniProtKB P35372
Sequence (P35372 whole entry): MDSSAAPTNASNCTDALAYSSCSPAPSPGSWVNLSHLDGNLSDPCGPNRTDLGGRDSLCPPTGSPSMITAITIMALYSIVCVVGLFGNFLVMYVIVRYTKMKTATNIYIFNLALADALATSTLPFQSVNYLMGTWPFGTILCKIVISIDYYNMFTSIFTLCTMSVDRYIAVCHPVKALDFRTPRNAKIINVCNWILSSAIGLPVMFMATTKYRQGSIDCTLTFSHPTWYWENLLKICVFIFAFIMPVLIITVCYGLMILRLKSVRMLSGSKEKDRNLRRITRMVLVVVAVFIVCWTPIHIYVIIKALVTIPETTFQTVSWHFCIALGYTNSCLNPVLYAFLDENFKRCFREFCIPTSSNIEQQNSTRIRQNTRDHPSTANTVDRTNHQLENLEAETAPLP
Assay: MOR agonist cAMP assay (HitHunter cAMP, forskolin-stimulated)
Procedure: The HitHunter® cAMP chemiluminescent assay kit (DiscoveRx, Cat# 90-0075 SM25) was used to detect cAMP production in cAMP Hunter™ Gαi cell lines over expressing either Human-ORPM1 (Discoverx, Catalog# 95-0107C2) or Human-ORPD1 (DiscoveRx, Catalog# 95-0108C2). […] Cellular cAMP concentrations were measured using the HitHunter cAMP Assay kit following the manufacturer's protocol. […] The amount of signal is directly proportional to the amount of cAMP in cells and can be quantified using cAMP standards. […]
pEC50: −log10 of the molar value. Square brackets hold non-standard residues; d marks the D form. Peptide text beside a SMILES is read from it. Dmt = Cc1cc(O)cc(C)c1C[C@H](N)C(=O)O; dNMeA = CN[C@H](C)C(=O)O; Sar = CNCC(=O)O
Property: pEC50; scope: individual molecules

Here are 5 molecules together with their reported answers.
{"MOLECULE": "Cc1cc(O)cc(C)c1C[C@H](N)C(=O)N[C@H](CC(=O)O)C(=O)NCC(=O)N[C@H](CC(=O)N(C)[C@@H](CC(C)C)C(=O)O)Cc1ccccc1 [compound 169]", "RESULT": "> 9.00"}
{"MOLECULE": "Cc1cc(C(N)=O)cc(C)c1C[C@H](N)C(=O)N[C@H](C)C(=O)NCC(=O)N[C@H](CC(=O)N(C)[C@@H](CC(C)C)C(=O)O)Cc1ccccc1 [compound 92]", "RESULT": "8.00 to 9.00"}
{"MOLECULE": "CCCC[C@@H](C(=O)O)N(C)C(=O)C[C@H](Cc1ccccc1Br)NC(=O)CNC(=O)[C@@H](C)NC(=O)[C@@H](N)Cc1c(C)cc(O)cc1C [compound 146]", "RESULT": "> 9.00"}
{"MOLECULE": "CCC[C@@H](C(=O)O)N(C)C(=O)C[C@H](Cc1ccccc1)NC(=O)CNC(=O)[C@@H](C)NC(=O)[C@@H](N)Cc1c(C)cc(O)cc1C [compound 162]", "RESULT": "> 9.00"}
{"MOLECULE": "Cc1cc(O)cc(C)c1C[C@H](N)C(=O)N[C@H](CC(=O)O)C(=O)NCC(=O)N[C@H](CC(=O)N(C)[C@@H](Cc1ccccc1)C(=O)O)Cc1ccccc1 [compound 177]", "RESULT": "> 9.00"}

-- ask Data request, read-out pEC50, for Cc1cc(O)cc(C)c1C[C@H](N)C(=O)N[C@H](CCCNC(=N)N)C(=O)N[C@@H](Cc1c[nH]cn1)C(=O)N[C@@H](CCCCN)C(N)=O [compound 4] (H-[Dmt][dR]HK-NH2)
-- reply 7.30 to 8.00

-- ask Data request, read-out pEC50, for Cc1cc(C(N)=O)cc(C)c1C[C@H](N)C(=O)N[C@H](C)C(=O)NCC(=O)N[C@H](CC(=O)N(C)[C@@H](CC1CCCCC1)C(=O)O)Cc1ccccc1 [compound 98]
-- reply 8.00 to 9.00

-- ask Data request, read-out pEC50, for Cc1cc(O)cc(C)c1C[C@H](N)C(=O)N[C@H](CC(=O)O)C(=O)NCC(=O)N[C@H](CC(=O)N(C)[C@@H](Cc1ccc(O)cc1)C(=O)O)Cc1ccccc1 [compound 180]
-- reply > 9.00

-- ask Data request, read-out pEC50, for Cc1cc(C(N)=O)cc(C)c1C[C@H](N)C(=O)N[C@H](C)C(=O)NCC(=O)N[C@H](CC(=O)N(C)[C@@H](Cc1c[nH]c2ccccc12)C(=O)O)Cc1ccccc1 [compound 106]
-- reply 8.00 to 9.00

-- ask Data request, read-out pEC50, for Cc1cc(O)cc(C)c1C[C@H](N)C(=O)N(C)[C@H](C)C(=O)N[C@@H](Cc1ccccc1)C(=O)N(C)CC(N)=O [compound 10] (H-[Dmt][dNMeA]F[Sar]-NH2)
-- reply > 9.00

-- ask Data request, read-out pEC50, for Cc1cc(O)cc(C)c1C[C@H](N)C(=O)N[C@H](CCCNC(=N)N)C(=O)N[C@@H](Cc1ccccc1)C(=O)N(C)[C@@H](CCCCN)C(N)=O [compound 5]
-- reply > 9.00
